Reported pIC50 values for a set of compounds
# Tested on: PKB Ser473 phosphorylation in Rat1-myr-HA-p110 alpha cells
# Measurement protocol: Reverse protein array assay, PKB Ser473 phosphorylation in Rat1-myr-p110 alpha cells
# Type: cell-based
# Measurement conditions: 0.5 h, pAkt Ser473, 30 minutes compound incubation, read-out: p-PKB IC50
pIC50: −log10 of the molar value.

[
  {
    "Smiles": "Cc1nn(C(C)C)cc1-n1c(=O)n(C)c2cnc3ccc(-c4ccccn4)cc3c21",
    "Study system": "PKB Ser473 phosphorylation in Rat1-myr-HA-p110 alpha cells",
    "pIC50": 6.09
  },
  {
    "Smiles": "Cc1nn(C(C)C)cc1-n1c(=O)n(C)c2cnc3ccc(-c4cnc(N)c(F)c4)cc3c21",
    "Study system": "PKB Ser473 phosphorylation in Rat1-myr-HA-p110 alpha cells",
    "pIC50": 8.00
  },
  {
    "Smiles": "CCOc1ccc(-c2ccc3ncc4c(c3c2)n(-c2c(C)nn(C)c2C)c(=O)n4C)cc1OC",
    "Study system": "PKB Ser473 phosphorylation in Rat1-myr-HA-p110 alpha cells",
    "pIC50": 7.30
  },
  {
    "Smiles": "Cc1nn(CC(=O)N(C)C)c(C)c1-n1c(=O)n(C)c2cnc3ccc(-c4ccc(-n5cccn5)cc4)cc3c21",
    "Study system": "PKB Ser473 phosphorylation in Rat1-myr-HA-p110 alpha cells",
    "pIC50": 7.85
  },
  {
    "Smiles": "Cc1nn(CC(=O)N2CCN(C)CC2)cc1-n1c(=O)n(C)c2cnc3ccc(-c4cnc(N5CCCC5)nc4)cc3c21",
    "Study system": "PKB Ser473 phosphorylation in Rat1-myr-HA-p110 alpha cells",
    "pIC50": 6.08
  },
  {
    "Smiles": "Cc1nn(C)cc1-n1c(=O)n(C)c2cnc3ccc(-c4cncc(C(C)(C)C#N)c4)cc3c21",
    "Study system": "PKB Ser473 phosphorylation in Rat1-myr-HA-p110 alpha cells",
    "pIC50": 8.00
  },
  {
    "Smiles": "CCOc1ccc(-c2ccc3ncc4c(c3c2)n(-c2cn(C)nc2C)c(=O)n4C)cn1",
    "Study system": "PKB Ser473 phosphorylation in Rat1-myr-HA-p110 alpha cells",
    "pIC50": 7.62
  }
]

###

# Study system: PI3K delta (Homo sapiens, UniProt O00329)
# Construct: for the full-length p110-d subunit are generated and fused by overlapping PCR; p85(iSH2) fusion partner (see partner chain) (N); His tag (C); made in house; host or cells: baculovirus; Tn5 (Trichoplusia ni) or TiniPro insect cells
# Sequence (O00329 with tags, fused parts or gaps limits assumed): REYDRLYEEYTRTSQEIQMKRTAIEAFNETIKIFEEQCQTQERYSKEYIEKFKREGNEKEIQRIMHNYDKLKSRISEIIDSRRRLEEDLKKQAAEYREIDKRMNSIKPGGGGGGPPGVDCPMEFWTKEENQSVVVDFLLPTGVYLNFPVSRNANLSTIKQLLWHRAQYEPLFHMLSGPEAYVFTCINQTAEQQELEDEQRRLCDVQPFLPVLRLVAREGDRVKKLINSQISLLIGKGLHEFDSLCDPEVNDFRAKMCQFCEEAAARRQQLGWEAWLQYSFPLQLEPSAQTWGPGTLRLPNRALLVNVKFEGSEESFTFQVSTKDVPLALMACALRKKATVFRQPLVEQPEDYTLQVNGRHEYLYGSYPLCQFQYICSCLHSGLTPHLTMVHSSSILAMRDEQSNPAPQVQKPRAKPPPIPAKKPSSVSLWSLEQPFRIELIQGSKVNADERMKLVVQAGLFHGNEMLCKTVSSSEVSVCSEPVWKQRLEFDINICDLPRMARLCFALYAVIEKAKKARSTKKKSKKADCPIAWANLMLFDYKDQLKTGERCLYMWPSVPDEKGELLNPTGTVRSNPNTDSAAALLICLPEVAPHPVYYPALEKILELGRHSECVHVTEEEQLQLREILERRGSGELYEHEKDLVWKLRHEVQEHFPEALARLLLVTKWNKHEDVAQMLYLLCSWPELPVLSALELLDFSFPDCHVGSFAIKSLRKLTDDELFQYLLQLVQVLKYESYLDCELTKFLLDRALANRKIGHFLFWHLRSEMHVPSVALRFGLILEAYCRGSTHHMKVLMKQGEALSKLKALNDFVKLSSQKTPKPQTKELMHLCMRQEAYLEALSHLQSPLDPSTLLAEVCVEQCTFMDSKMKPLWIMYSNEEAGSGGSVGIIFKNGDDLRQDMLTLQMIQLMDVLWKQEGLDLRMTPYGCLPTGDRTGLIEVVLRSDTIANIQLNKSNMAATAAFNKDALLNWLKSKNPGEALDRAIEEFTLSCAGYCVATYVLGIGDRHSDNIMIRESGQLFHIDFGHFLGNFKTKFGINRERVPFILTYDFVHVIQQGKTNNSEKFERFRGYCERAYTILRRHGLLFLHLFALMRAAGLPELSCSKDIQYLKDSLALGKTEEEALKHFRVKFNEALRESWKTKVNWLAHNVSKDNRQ
# Measurement protocol: PI3K delta kinase assay (Kinase-Glo luminescence)
# Assay type: biochemical
pIC50: −log10 of the molar value.
Value kind: pIC50

[
  {
    "Compound": "Cc1nn(C)c(C)c1-n1c(=O)n(C)c2cnc3ccc(-c4cccc(S(=O)(=O)N(C)C)c4)cc3c21 [Example 53.2]",
    "Measurement": 7.03
  },
  {
    "Compound": "Cc1nn(C)cc1-n1c(=O)n(C)c2cnc3ccc(-c4cnc(N)c(Cl)c4)cc3c21 [Example 148.2]",
    "Measurement": 7.41
  },
  {
    "Compound": "CCNc1cc(-c2ccc3ncc4c(c3c2)n(-c2cn(C)nc2C)c(=O)n4C)cnc1COC [Example 156]",
    "Measurement": 7.77
  },
  {
    "Compound": "Cc1nn(C)cc1-n1c(=O)n(C)c2cnc3ccc(-c4cccc5c4OC(F)(F)O5)cc3c21 [Example 35]",
    "Measurement": 7.54
  },
  {
    "Compound": "CCOc1ccc(-c2ccc3ncc4c(c3c2)n(-c2cn(CC(=O)N3CCC3)nc2C)c(=O)n4C)cn1 [Example 138]",
    "Measurement": 7.38
  },
  {
    "Compound": "Cc1nn(C)cc1-n1c(=O)n(C)c2cnc3ccc(-c4ccccc4)cc3c21 [Example 37.1]",
    "Measurement": 6.35
  },
  {
    "Compound": "Cc1nn(C)cc1-n1c(=O)n(C)c2cnc3ccc(-c4cncc(C(C)(C)O)c4)cc3c21 [Example 215.2]",
    "Measurement": 7.96
  },
  {
    "Compound": "COCc1ccc(-c2ccc3ncc4c(c3c2)n(-c2cn(C)nc2Cl)c(=O)n4C)cn1 [Example 203]",
    "Measurement": 8.10
  },
  {
    "Compound": "CNc1ccc(-c2ccc3ncc4c(c3c2)n(-c2cn(C)nc2C)c(=O)n4C)cn1 [Example 118.2]",
    "Measurement": 7.89
  },
  {
    "Compound": "Cc1nn(C)cc1-n1c(=O)n(C)c2cnc3ccc(-c4cncc(C(C)(C)CO)c4)cc3c21 [Example 229]",
    "Measurement": 8.30
  },
  {
    "Compound": "CCn1nccc1-n1c(=O)n(C)c2cnc3ccc(-c4ccc(OC)c(OC)c4)cc3c21 [Example 1.2]",
    "Measurement": 7.21
  },
  {
    "Compound": "Cc1cc(-n2c(=O)n(C)c3cnc4ccc(-c5cnc(F)c(N)c5)cc4c32)n(C)n1 [Example 149.3]",
    "Measurement": 7.42
  },
  {
    "Compound": "Cc1nn(C)cc1-n1c(=O)n(C)c2cnc3ccc(-c4cncc(S(C)(=O)=O)c4)cc3c21 [Example 22]",
    "Measurement": 8.05
  },
  {
    "Compound": "CCNc1cncc(-c2ccc3ncc4c(c3c2)n(-c2cn(C)nc2C)c(=O)n4C)c1 [Example 122]",
    "Measurement": 7.85
  },
  {
    "Compound": "CNc1ncc(-c2ccc3ncc4c(c3c2)n(-c2cn(C)nc2Cl)c(=O)n4C)cc1C [Example 119]",
    "Measurement": 8.05
  },
  {
    "Compound": "CC(C)Oc1cncc(-c2ccc3ncc4c(c3c2)n(-c2cn(C)nc2Cl)c(=O)n4C)c1 [Example 58.2]",
    "Measurement": 8.40
  }
]
